- System: Bacillus cereus
- experiment-description: Antibacterial activity against Bacillus cereus assessed as inhibition of bacterial growth incubated for 24 hrs by microbroth dilution method
- Type: functional
- measurement-setup: Bacillus cereus, read-out: MIC
Below, each of the compounds is paired with its reported MIC value.
metric-name: MIC

>>> assay_result("O=c1c(-c2ccc(O)cc2)coc2cc(O)cc(O)c12 [GENISTEIN]")
"> 50 µM"
>>> assay_result("O=c1c(-c2ccc(Oc3c(O)cc(O)c4c(=O)c(-c5ccc(O)cc5)coc34)cc2)coc2c(Cl)c(O)ccc12")
"> 50 µM"
>>> assay_result("O=c1c(-c2ccc(O)c(-c3c(O)ccc4c(=O)c(-c5ccc(O)cc5)coc34)c2)coc2cc(O)ccc12")
"3.1 µM"
